Tested on: human PTEN
Assay: PTEN expression in HeLa cells, ssRNAs vs siRNAs (Example 62)
Type: cell-based
Conditions: antisense strand duplexed with sense strand ISIS 341401, PTEN mRNA, read-out: EC50 (nM) siRNA
Method: A series of 5′ and 2′ bis-substituted modified oligomeric compounds were prepared as single strand RNAs (ssRNAs). The antisense (AS) strands listed below were designed to target human PTEN, and each was also assayed as part of a duplex with the same sense strand (ISIS 341401, shown below) for their ability to reduce PTEN expression levels. […] The IC50's were calculated using the linear regression equation generated by plotting the normalized mRNA levels to the log of the concentrations used.
Strand notation (5' to 3'): a small letter for the sugar, then the base; units joined by * are phosphorothioate-linked, units joined directly phosphodiester-linked; [ ] holds rarer units or linkages, { } end groups; capitals alone tell only the bases. [R5Me] = (R)-5'-methyl-2'-deoxythymidine; e = 2'-O-(2-methoxyethyl) (MOE); m = 2'-O-methyl; {P} = phosphate; f = 2'-fluoro
endpointName: EC50 (nM)
Only the number, expressed in nM, is required.

# annotated cases, reported EC50 shown
P-TRUfGfUfCfUfCfUfGfGfUfCfCfUfUfAfCfUfUfAeAe (antisense TUGUCUCUGGUCCUUACUUAA; sugars from the 5' end [R5Me]1 f18 e2, 5' {P}, backbone not given here) [ISIS 432356, modified ssRNA targeting PTEN]: 0.7
P-UfUfGfUfCfUfCfUfGfGfUfCfCfUfUfAfCfUfUf (antisense {P}-fUfUfGfUfCfUfCfUfGfGfUfC*fC*fU*fU*fA*fC*fU*fU) [ISIS 386187, modified ssRNA targeting PTEN]: 0.3

# ---- query substance ----
Exercise: // EC50 lookup, key: P-UmUfGmUfCmUfCmUfGmGfUmCfCmUfUmAfCmUfUmAeAe (antisense UUGUCUCUGGUCCUUACUUAA; sugars from the 5' end mfmfmfmfmfmfmfmfmfmee, 5' {P}, backbone not given here) [ISIS 418046, modified ssRNA targeting PTEN]
Key: 0.2
